The reported numbers originate from paper PMC6300088.

# Test system: ABCB1 (P-glycoprotein)
# Type: cell-based, human
# CONDITION SET: 2 µM, rhodamine 123 retention
QUANTITY: FAR (fluorescence activity ratio)

- CC1(C)O[C@H]1COc1c2ccoc2cc2oc(=O)ccc12: 0.76
- CC(C)(O)[C@H](O)COc1c2occc2cc2ccc(=O)oc12: 1.37
- CC1(C)O[C@@H]1COc1c2occc2cc2ccc(=O)oc12: 1.29
- CC(C)=CCOc1c2occc2cc2ccc(=O)oc12: 0.62
